Tested on: rodent lifetime carcinogenesis bioassay, tumor incidence TD50
Assay: carcinogenic potency in animals, long-term in vivo studies, CPDB compilation (AID 1745844)
Details: rat; strain Fischer; males; in feed; site: external auditory canal; lesion: squamous-cell carcinoma; dosed 75 weeks; study length 75 weeks
quantity: TD50

INSERT INTO assay_data (chemical_smiles, quantity, reported_result) VALUES
  ('COc1cc2c(cc1N)oc1ccccc12', 'TD50', '78.2 mg/kg/day');

###

System: rodent lifetime carcinogenesis bioassay, tumor incidence TD50
Experiment: carcinogenic potency in animals, long-term in vivo studies, CPDB compilation (AID 1745844)
Details: rat; strain Slc-Wistar; males; in drinking water; site: liver; lesion: hepatocellular adenoma; dosed 120 weeks; study length 120 weeks
Activity calls are given as the source filed them. How the calls were made is not given here.
quantity: TD50

INSERT INTO assay_data (chemical_smiles, system, reported_result) VALUES
  ('CCO', 'rodent lifetime carcinogenesis bioassay, tumor incidence TD50', '56100 mg/kg/day (inactive)');

###

Test system: rodent lifetime carcinogenesis bioassay, tumor incidence TD50
Assay: carcinogenic potency in animals, long-term in vivo studies, CPDB compilation (AID 1745844)
Conditions: mouse; strain CD-1 HaM/ICR; females; in feed; site: liver; lesion: several types; types named in the paper; dosed 68 weeks; study length 94 weeks
quantity: TD50

INSERT INTO results (chemical_smiles, system, quantity, reported_result) VALUES
  ('Cc1ccc(C)c(N)c1', 'rodent lifetime carcinogenesis bioassay, tumor incidence TD50', 'TD50', '552 mg/kg/day');

###

Test system: rodent lifetime carcinogenesis bioassay, tumor incidence TD50
Assay: carcinogenic potency in animals, long-term in vivo studies, CPDB compilation (AID 1745844)
Conditions: rat; strain MRC-Wistar; females; in drinking water; site: any site (literature study); lesion: several types; types named in the paper; dosed 52 weeks; study length 90 weeks
quantity: TD50 (mg/kg/day)

INSERT INTO measurements (chemical_smiles, system, display_unit, reported_result) VALUES
  ('CCN(C#N)N=O', 'rodent lifetime carcinogenesis bioassay, tumor incidence TD50', 'mg/kg/day', 3.17);

###

Tested on: rodent lifetime carcinogenesis bioassay, tumor incidence TD50
Experiment: carcinogenic potency in animals, long-term in vivo studies, CPDB compilation (AID 1745844)
Conditions: mouse; strain Swiss albino; females; in drinking water; site: lung; lesion: adenoma; dosed 95 weeks; study length 95 weeks
quantity: TD50

INSERT INTO assay_data (chemical_smiles, reported_result) VALUES
  ('O=S(=O)(O)O', '26.7 mg/kg/day');

###

System: rodent lifetime carcinogenesis bioassay, tumor incidence TD50
Assay: carcinogenic potency in animals, long-term in vivo studies, CPDB compilation (AID 1745844)
Settings: mouse; strain Charles River CD1; females; inhaled; site: mammary gland; lesion: adenocarcinoma; dosed 67 weeks; study length 74 weeks
quantity: TD50

INSERT INTO measurements (chemical_smiles, reported_result) VALUES
  ('C=CF', '13.6 mg/kg/day');

###

Test system: rodent lifetime carcinogenesis bioassay, tumor incidence TD50
Experiment: carcinogenic potency in animals, long-term in vivo studies, CPDB compilation (AID 1745844)
Conditions: mouse; strain B6C3F1; males; inhaled; site: lung; lesion: alveolar/bronchiolar adenoma + alveolar/bronchiolar carcinoma; dosed 95 weeks; study length 95 weeks
quantity: TD50 (mg/kg/day)

INSERT INTO measurements (chemical_smiles, quantity, reported_result) VALUES
  ('FC(F)=C(F)F', 'TD50', 220);

Where these numbers come from: PubChem BioAssay AID1745844
